meta.source: ChEMBL document CHEMBL1201862

For reference, log10 GI50 measured on HCT-15:
Note: values are log10 of GI50 expressed in µM.

// known answers, use as guide
O=c1[nH]/c(=C/c2ccc(OCc3ccccc3)cn2)c(=O)[nH]/c1=C/c1ccc(O)cc1: -0.30
C=C(C)C[C@H](Sc1nc2ccccc2s1)[C@H](C)O: 1.55
N#Cc1sc2c(c1OC(=O)c1ccc(C(F)(F)F)cc1)c(=O)n(-c1ccccc1)c(=S)n2-c1ccccc1: 1.34
CCOC(=O)/C=C/C1=C(Br)[C@@]2(C)CC[C@@H]3c4ccc(O)cc4CC[C@H]3[C@@H]2C1: 1.08

Exercise: Please report the recorded log10 GI50 for CCCCCCCCC/C=C1/CC(CO)(COC(=O)c2ccccc2)OC1=O (stereo not given) .
Key: 1.21

* * *

The compounds listed here are annotated with their GI50.
- Test system: EKVX
- Protocol Text: NCI tumour cell line growth inhibition, 48 h
Calls of active or inactive are those of the source. Rule as the data show it: active = GI50 up to about 1.1 µM and inactive = higher.

// known answers, use as guide
CCCCCCCCC/C=C1/CC(CO)(COC(=O)c2ccccc2)OC1=O (stereo unspecified): 14.9 µM (inactive)
O=C(NC1CCCCC1)N1CCNC1=S: 9.53 µM (inactive)

Exercise: Please report the recorded GI50 for `CO[C@]12CCC(=O)N1C=Cc1c2[nH]c2ccccc12` .
Key: > 100 µM (inactive)

Exercise: Same lookup for `O=C(NNC(=O)c1ccccc1Cl)c1ccccc1O` , please.
Key: 16.3 µM (inactive)

Exercise: Same lookup for [O-][S+]1c2ccccc2NC(c2ccc3ccccc3c2)CC1c1ccccc1 (stereo unspecified) , please.
Key: 26.6 µM (inactive)

Exercise: Same lookup for `C=CC1(c2ccc(Cl)c(Cl)c2)OCCO1` , please.
Key: > 100 µM (inactive)

* * *

- System: SF-539
- Protocol Text: NCI tumour cell line growth inhibition, 48 h
Activity calls are given as the source filed them. Rule as the data show it: active = GI50 up to about 1.1 µM and inactive = higher.
Permitted responses: yes (1) for active, no (0) for inactive

Reference set (5 entries):
COc1cc2c(cc1OC)C(=O)/C(=C/c1ccc(Cl)cc1)CC2: no (0)
CCCCCc1nnc(NS(=O)(=O)c2ccc(NC(=O)OCC(C)C)cc2)s1: no (0)
C[C@H](CCC(=O)NCCS(=O)(=O)O)[C@H]1CC[C@H]2[C@@H]3[C@H](O)C[C@@H]4C[C@H](O)CC[C@]4(C)[C@H]3CC[C@]12C: no (0)
CN(C)CC(=O)N1CCc2c([nH]c3ccccc23)C1c1cccnc1 (stereo unspecified): no (0)
C/C(CC(O)(C(F)(F)F)C(F)(F)F)=N\N: no (0)

Exercise: Recorded test call requested for `N#Cc1ccc(Sc2ccccc2)cc1C#N`
Key: no (0)

Exercise: Same lookup for CC(=O)Oc1c2c(c(CC=C(C)C)c3c1C(=O)C1=C[C@@H]4CC5C(C)(C)OC(C/C=C(/C)C(=O)O)(C4=O)[C@@]15O3)OC(C)(CCC=C(C)C)C=C2 (stereo partly specified) , please.
Key: yes (1)

Exercise: Same lookup for `O=S(O)CCCCSSCc1ccccc1CSSCCCCS(=O)O` , please.
Key: no (0)

Exercise: Same lookup for `CCN(CC)C(=S)SS(=O)(=O)c1ccccc1C(=O)O` , please.
Key: no (0)

Exercise: Same lookup for `COc1ccc(Nc2ccc3ccccc3c2-c2c(O)ccc3ccccc23)cc1` , please.
Key: no (0)

Exercise: Same lookup for `COC(=O)[C@@H]1[C@H](O)CC[C@H]2[C@@]1(C)CC[C@@H](C)[C@]2(COC(C)=O)CC(=O)c1ccoc1` , please.
Key: no (0)
